The measurements presented in this section are drawn from BindingDB's records for patent US20240083908.

Assay system Poly(ADP-ribose) glycohydrolase (Homo sapiens); read-out recorded as IC50.
API: value field is a number in nM; no unit string.

Cn1cc(Cn2c(=O)c3cc(S(=O)(=O)NC4(C)CC4)sc3n(Cc3cnn(CCO)c3)c2=O)cn1
20
Cn1cc(Cn2c(=O)c3cc(S(=O)(=O)NC4(C)CC4)sc3n(Cc3cnc4c(c3)COC4)c2=O)cn1
4
Cc1ncc(Cn2c(=O)[nH]c3sc(S(=O)(=O)NC4(C)CC4)cc3c2=O)s1
22900

We next turn to a different compound, shown below.
Value sought: IC50, system Poly(ADP-ribose) glycohydrolase (Homo sapiens), item Cn1cc(Cn2c(=O)c3cc(S(=O)(=O)NC4(C)CC4)sc3n(CC3CCN(CCO)CC3)c2=O)cn1 . Result: 500
